Overview of recorded normalized growth for various compounds
Test: chemical genetic growth profiling, strain panel (AID 1159580);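 also: tested at 20 µM; growth read once vehicle control cultures reached saturation at 30 °C; 1 = growth at the plate median or of vehicle wells; lower values mean less growth of the strain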
Conditions: S. cerevisiae deletion strains, growth OD, locus YBR229C, strain ROT2, active compounds read low
Among all 5,500 compounds or so, about 2,000 (36%) were called active. Not shown: some 18% with an inconclusive outcome. The list shows a part of the results.

| compound | normalized growth |
| --- | --- |
| CC(=O)Oc1cccc2c1C(=O)c1c(OC(C)=O)cc(C(=O)O)cc1C2=O | 1.01 |
| CC(C)(C)c1ccc(CSc2nc(N)cc(=O)[nH]2)cc1 | 1.02 |
| COc1cccc(NC(=O)NC2Cc3ccccc3C2)c1 | 0.998 |
| O=C(COC(=O)c1ccccc1C(=O)c1ccccc1)c1ccccc1 | 0.988 |
| COc1ccc2c(=O)ccoc2c1 | 1.01 |
| Cc1cccc(C(=O)c2ccccc2C(=O)O)c1 | 1.02 |
| O=C(CCc1ccc(O)cc1)c1c(O)cc(O)cc1O[C@@H]1O[C@H](CO)[C@@H](O)[C@H](O)[C@H]1O | 1.02 |
| CC(=O)NO | 1.01 |
| CC1=CC2C(C(C)C)CCC(C)(O)C2CC1 (stereo not drawn) | 0.949 |
| COc1cccc(C(=O)N/N=C(/C)c2ccccc2O)c1 | 0.961 |
| NCC1OC(OC2C(CO)OC(OC3C(O)C(N)CC(N)C3OC3OC(CO)C(O)CC3N)C2O)C(N)C(O)C1OC1OC(CO)C(O)C(O)C1O (stereo not drawn) | 0.999 |
| COc1cnc(NS(=O)(=O)c2ccc(N)cc2)nc1 | 0.956 |
| C=C(C)[C@@H]1CC[C@]2(CO)CC[C@]3(C)[C@H](CCC4[C@@]5(C)CC[C@H](O)C(C)(C)C5CC[C@]43C)C12 (stereo partly drawn) | 0.995 |

All values here come from PubChem BioAssay AID1159580.
